- protocol: Aqueous chemical stability, 50 mM phosphate buffer pH 8, HPLC-UV (Table 4)
- Type: physicochemical
- particulars: 50 mM buffer phosphate pH 8, 37° C., HPLC UV 211 nm
Counter-ions that a name gives are not always drawn.
measure-name: pH 8 (t ½, min)

COC(=O)/C=C/C(=O)OCC[N+]1([O-])CCOCC1 :: 129
COC(=O)/C=C/C12COC(C)(CO1)CO2 :: 1010

(P) COC(=O)/C=C/C(=O)OCCN1CCOC(=O)C1 [Compound 31, fumarate hydrochloride]
(Q) COC(=O)/C=C/C(=O)OCCN1CC2CCC(C1)O2 [Compound 32, fumarate hydrochloride]
Problem: I would appreciate it if you could say which entry, P or Q , has the lower pH 8 (t ½, min) value. Record your answer as the label of the chosen record.
Result: Q

(P) CCC(=O)N(CCOC(=O)/C=C/C(=O)OC)C(=O)CC
(Q) COC(=O)/C=C/C(=O)OCCN1CCC(F)(F)CC1 [Compound 5, fumarate hydrochloride]
Problem: Between P and Q , whose measured pH 8 (t ½, min) reads higher? Mark your selection by writing its label.
Result: P
(P: 158 min, Q: 24 min)

----------
- protocol: Aqueous chemical stability, 100 mM phosphate buffer, HPLC (Table 3)
- Assay type: physicochemical
- particulars: buffer phosphate (100 mM), 37° C., half-lives >360 min estimated from initial slope
Structures can show the parent of a compound that is named as a salt.
measure-name: pH 8 (t ½, min)

Use the examples below as a reference point.
COC(=O)/C=C/C(=O)OCCS(C)(=O)=O :: 67.0
COC(=O)/C=C/C(=O)OCCN(CC(=O)O)CC(=O)O [Compound 1, hydrochloride] :: 15
COC(=O)/C=C/C(=O)OCCN1CCCC1 [Compound 18, fumarate hydrochloride] :: 5.0
COC(=O)/C=C/C(=O)OCCN1CCC(F)(F)CC1 [Compound 5, fumarate hydrochloride] :: 24
COC(=O)/C=C/C(=O)OCCN1CCOCC1 [Compound 16, fumarate hydrochloride] :: 20.0
COC(=O)/C=C/C(=O)OCC(C)(C)N(C)C [Compound 9, fumarate hydrochloride] :: 7.0

(A) COC(=O)/C=C/C(=O)OCCN(C)C [Compound 19, fumarate hydrochloride]
(B) COC(=O)/C=C/C(=O)OCCN1CCCCC1 [Compound 15, fumarate hydrochloride]
Problem: Exercise: compare A and B ; which one has the greater pH 8 (t ½, min)? Choose, then provide that item's label.
Result: A

(A) COC(=O)/C=C/C(=O)OCCN1CCC2(CC1)OCCO2 [Compound 17, fumarate hydrochloride]
(B) CCN(CC)CCOC(=O)/C=C/C(=O)OC [Compound 20, fumarate hydrochloride]
(C) CCN(CC)C(=O)COC(=O)/C=C/C(=O)OC [Reference Compound A, reference compound]
(D) COC(=O)/C=C/C(=O)OCC[N+](C)(C)C
Problem: Rank items: key pH 8 (t ½, min), increasing. Return value: ordered labels per request.
Result: B, A, D, C
(B: 5.0 min, A: 11.0 min, D: 45 min, C: 120 min)

----------
- protocol: Aqueous chemical stability, 50 mM phosphate buffer pH 8, HPLC-UV (Table 4)
- Format: physicochemical
- particulars: 50 mM buffer phosphate pH 8, 37° C., HPLC UV 211 nm
Counter-ions that a name gives are not always drawn.
measure-name: pH 8 (t ½, min)

COC(=O)/C=C/C(=O)OCCN(CC(=O)O)CC(=O)O [Compound 1, hydrochloride] :: 15

(I) COC(=O)/C=C/C(=O)OCCN1CCOC(CN(C)C)C1 (stereo not shown) [Compound 33, fumarate hydrochloride]
(II) COC(=O)/C=C/C(=O)OCCN1CCOC1=O
Problem: Record comparison, field pH 8 (t ½, min): mark the lower of I and II . Answer with the label corresponding to your selection.
Result: I
(I: 115 min, II: 183 min)

----------
- protocol: Aqueous chemical stability, 50 mM phosphate buffer pH 8, HPLC-UV (Table 4)
- Type: physicochemical
- particulars: 50 mM buffer phosphate pH 8, 37° C., HPLC UV 211 nm
Where a name gives a salt, the structure may show the parent alone.
measure-name: pH 8 (t ½, min)

Known pH 8 (t ½, min) results, listed for orientation:
COC(=O)/C=C/C(=O)OCCN1C(=O)C2CC2C1=O (centres unmarked) [Compound 22] :: 144
COC(=O)/C=C/C(=O)OCCN1C(=O)CC(C)(C)C1=O [Compound 37] :: 182
COC(=O)/C=C/C(=O)OCCN1C(=O)COCC1=O [Compound 27] :: 37
C#CCOC(=O)/C=C/C(=O)OC [Compound 131, Methyl prop-2-yn-1-yl fumarate] :: 96
COC(=O)/C=C/C(=O)OCCNC(=O)OC(C)(C)C [Compound 48] :: 220
COC(=O)/C=C/C(=O)OCCN1CCCC1=O [Compound 38] :: 201

(P) COC(=O)/C=C/C(=O)OCCN1CCOCC1=O [Compound 30]
(Q) COC(=O)/C=C/C(=O)OCC[N+](C)(C)C [Compound 4]
Problem: Task for the reader: decide whether P or Q has the larger pH 8 (t ½, min). Could you answer with the label of the item you picked?
Result: P
(P: 229 min, Q: 30 min)

----------
- protocol: Aqueous chemical stability, 50 mM phosphate buffer pH 8, HPLC-UV (Table 4)
- Type: physicochemical
- particulars: 50 mM buffer phosphate pH 8, 37° C., HPLC UV 211 nm
Where a name gives a salt, the structure may show the parent alone.
measure-name: pH 8 (t ½, min)
Could you give me the number in min? Just the number is fine.

COC(=O)/C=C/C(=O)OCCN1C(=O)[C@@H](C)[C@@H](C)C1=O :: 186

Consider the record given below.
Problem: Identify measured pH 8 (t ½, min) associated with COC(=O)/C=C/C(=O)OC(C)CN(C)C (stereo not drawn) [Compound 6, fumarate hydrochloride]
Result: 2

----------
- protocol: Aqueous chemical stability, 100 mM phosphate buffer, HPLC (Table 3)
- Assay type: physicochemical
- particulars: buffer phosphate (100 mM), 37° C., half-lives >360 min estimated from initial slope
- Description: Stock solutions of the compounds in acetonitrile or acetonitrile/methanol were prepared at 20 mg/mL and 20 μL, spiked into 3 mL of buffer phosphate (100 mM) and incubated at 37° C. […] The diluted samples were analyzed by HPLC. The peak areas corresponding to the compounds were plotted against time and the data were fitted to a first-order mono-exponential decay where the rate constant and the half-life were determined (Table 3).
Where a name gives a salt, the structure may show the parent alone.
measure-name: pH 8 (t ½, min)
# output: bare number, implied unit min

COC(=O)/C=C/C(=O)OCCNc1ccccc1 [Compound 8, fumarate hydrochloride] :: 36.0
COC(=O)/C=C/C(=O)OCCN1CCSCC1 [Compound 7, fumarate hydrochloride] :: 26.0

Shifting focus to the molecule that follows.
Problem: Dear colleague, please send me the reported pH 8 (t ½, min) for COC(=O)/C=C/C(=O)OC(C)CN(C)C (stereo not shown) [Compound 6, fumarate hydrochloride] when you can.
Result: 2.0
